Measured values drawn from the supplement of paper PMC11780869 for this set.

- Tested on: Bacillus subtilis
- assay procedure: cleaved RNA product abundance (RNA/gDNA barcode ratio) relative to median wild-type variant (ratio to wild type); higher = more accumulation of the downstream cleavage product
- particulars: experiment (reporter, strain, medium): exp 4a: truncated aprE reporter, strain BJT201 with 2% xylose (RNase J1 expressed); cleavage site: cggR-gapA (positions -7 to +36 mutated)
Measured cleaved RNA product abundance values are reported for all entries that follow.
endpoint name: cleaved RNA product abundance

[[record]]
sequence = "ACAGACGAAGGAGCCGCAAAGAATTTATTAAGGGCTGAATAATCCCTCAATATAAATATCTCTCACTTATTTAAA"
target_or_test_system = "Bacillus subtilis"
endpoint_name = "cleaved RNA product abundance"
reported_result = 0.402

[[record]]
sequence = "ACAGACGAAGGAGCCGCAAAGAAGTTATTAAGGGATGAATAAAACCTCAATATAAATATCTCTCACTTATTTAAA"
target_or_test_system = "Bacillus subtilis"
endpoint_name = "cleaved RNA product abundance"
reported_result = 0.125

[[record]]
sequence = "ACAGACGAAGGAGCCGCAAAGAAGTTATTAAGGGATGAATAATCCCGTAATATAAATATCTCTCACTTATTTAAA"
target_or_test_system = "Bacillus subtilis"
endpoint_name = "cleaved RNA product abundance"
reported_result = 0.682

[[record]]
sequence = "ACAGACGAAGGAGCCGCAAATAAGTTATTAAGGGATGAATAATGCCTCAATATAAATATCTCTCACTTATTTAAA"
target_or_test_system = "Bacillus subtilis"
endpoint_name = "cleaved RNA product abundance"
reported_result = 0.145

[[record]]
sequence = "ACAGACGAAGGAGCCGCAAAGAAGTTATTAAGTGATGAATTATCCCTCAATATAAATATCTCTCACTTATTTAAA"
target_or_test_system = "Bacillus subtilis"
endpoint_name = "cleaved RNA product abundance"
reported_result = 0.249

[[record]]
sequence = "ACAGACGAAGGAGCCGCAAAGAAGTAATTAAGGGATGAATAATCCCTCTATATAAATATCTCTCACTTATTTAAA"
target_or_test_system = "Bacillus subtilis"
endpoint_name = "cleaved RNA product abundance"
reported_result = 0.193

[[record]]
sequence = "ACAGACGAAGGAGCCGCAAAGAAGTTATAAAGGGATGAATAATCCCTCAACATAAATATCTCTCACTTATTTAAA"
target_or_test_system = "Bacillus subtilis"
endpoint_name = "cleaved RNA product abundance"
reported_result = 0.304

[[record]]
sequence = "ACAGACGAAGGAGCCGCAAAGAAATTATTACGGGATGAATAATCCCTCAATATAAATATCTCTCACTTATTTAAA"
target_or_test_system = "Bacillus subtilis"
endpoint_name = "cleaved RNA product abundance"
reported_result = 0.396

[[record]]
sequence = "ACAGACGAAGGAGCCGCAAATAAATTATTAAGGGATGAATAATCCCTCAACATAAATATCTCTCACTTATTTAAA"
target_or_test_system = "Bacillus subtilis"
endpoint_name = "cleaved RNA product abundance"
reported_result = 0.396

[[record]]
sequence = "ACAGACGAAGGAGCCGCAAAGAAGTTATTAAGGGAGGAATAATTCCTCAATATAAATATCTCTCACTTATTTAAA"
target_or_test_system = "Bacillus subtilis"
endpoint_name = "cleaved RNA product abundance"
reported_result = 0.0856

[[record]]
sequence = "ACAGACGAAGGAGCCGCAAAGAGGTAATTAAGGGATGAATAATCCCTCAATATAAATATCTCTCACTTATTTAAA"
target_or_test_system = "Bacillus subtilis"
endpoint_name = "cleaved RNA product abundance"
reported_result = 0.176

[[record]]
sequence = "ACAGACGAAGGAGCCGCAAAGAAGTTAGTAATGGATGAATAATCCCTCAATATAAATATCTCTCACTTATTTAAA"
target_or_test_system = "Bacillus subtilis"
endpoint_name = "cleaved RNA product abundance"
reported_result = 0.141

[[record]]
sequence = "ACAGACGAAGGAGCCGCAAAGAAGTTATTAAGAGATGAATAATCCCTCAATATAAATACCTCTCACTTATTTAAA"
target_or_test_system = "Bacillus subtilis"
endpoint_name = "cleaved RNA product abundance"
reported_result = 0.126

[[record]]
sequence = "ACAGACGAAGGAGCCGCAAAGAAGTTATTAAGGAATGAATAATCCATCAATATAAATATCTCTCACTTATTTAAA"
target_or_test_system = "Bacillus subtilis"
endpoint_name = "cleaved RNA product abundance"
reported_result = 0.124

[[record]]
sequence = "ACAGACGAAGGAGCCGCAAAGAAGTTATTCAGGAATGAATAATCCCTCAATATAAATATCTCTCACTTATTTAAA"
target_or_test_system = "Bacillus subtilis"
endpoint_name = "cleaved RNA product abundance"
reported_result = 0.129

